Biological target: T1, human IL-18Rα (IL-18R1) on human cells (KG-1 cells, PBMC, TH1-cultured T cells, whole blood) (human, UniProt Q13478 19-541)
T1 sequence: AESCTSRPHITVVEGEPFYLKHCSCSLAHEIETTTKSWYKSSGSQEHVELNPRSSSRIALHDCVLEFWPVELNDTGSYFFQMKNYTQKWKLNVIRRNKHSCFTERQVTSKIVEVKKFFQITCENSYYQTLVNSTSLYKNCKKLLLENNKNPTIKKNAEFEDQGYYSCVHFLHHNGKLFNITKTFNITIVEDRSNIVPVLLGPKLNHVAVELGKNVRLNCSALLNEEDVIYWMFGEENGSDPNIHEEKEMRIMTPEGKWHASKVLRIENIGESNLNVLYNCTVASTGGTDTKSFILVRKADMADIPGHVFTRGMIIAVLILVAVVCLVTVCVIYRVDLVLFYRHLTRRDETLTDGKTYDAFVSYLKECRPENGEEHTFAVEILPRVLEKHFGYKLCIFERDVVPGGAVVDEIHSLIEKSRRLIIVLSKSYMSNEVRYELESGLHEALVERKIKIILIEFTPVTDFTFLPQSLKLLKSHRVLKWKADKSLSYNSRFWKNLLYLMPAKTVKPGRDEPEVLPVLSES
Assay: cell-based or functional assay
Parameter: human TH1-assay (IFN-γ after IL-18/IL-12 restimulation), IC90 [pM]

[[record]]
binder = "humanized Mab1G12-12.6 (antibody, V domains shown) VH: QVQLVQSGAEVKKPGASVKVSCKASGYTFTSNWMHWVRQAPGQGLEWMGTIDPSDSYTYYAQKLQGRVTMTTDTSTSTAYMELRSLRSDDTAVYYCTTSGDYDADRYFDVWGQGTTVTVSS VL: EIVLTQSPGTLSLSPGERATLSCRASKSVSTSGDSYMHWYQQKPGQAPRLLIYLASNLETGIPDRFSGSGSGTDFTLTISRLEPEDFAVYYCQQSRELPLSFGQGTKLEIK"
value = "399 pM"


Sure, the documented human TH1-assay (IFN-γ after IL-18/IL-12 restimulation), IC90 [pM] for humanized Mab1G12-10.6 (antibody, V domains shown) VH: QVQLVQSGAEVKKPGASVKVSCKASDYTFTSNWMHWVRQAPGQGLEWMGTIDPSDSYTYYNQKFQGRATMTVDTSTSTVYMELSSLRSEDTAVYYCTTSGDYDADRYFDVWGQGTTVTVSS VL: EIVLTQSPGTLSLSPGERATLSCRASKSVSTSGDSYMHWYQQKPGQAPRLLIYLASNLETGIPDRFSGSGSGTDFTLTISRLEPEDFAVYYCQQSRELPLSFGQGTKLEIK is 93.5 pM
